System: UACC-257 melanoma
Experiment: NCI tumour cell line growth inhibition, 48 h
REPORTED_PROPERTY: GI50

The examples below pair each entry with its known result.
COC(=O)[C@]12CC[C@@H](C)[C@H](C)[C@@H]1C1=CC[C@@H]3[C@@]4(C)C(C=O)=C[C@@](C)(COC(=O)/C=C/c5ccccc5)[C@@H]4[C@H](O)C[C@@]3(C)[C@]1(C)CC2
2.36 µM
COc1ccc(N(C)c2nc(Cl)nc3cnn(C)c23)cc1
29.8 µM
COc1cc2c(cc1C)NC(=O)/C2=C\c1c[nH]c2ccccc12
21.9 µM
Nc1ncnc2c1ccn2[C@@H]1O[C@H]([C@H](O)c2ccc(Cl)c(F)c2)[C@@H](O)[C@H]1O
> 100 µM
CC1(C)N=C(N)N=C(N)N1c1cccc(Br)c1
> 92.4 µM

INPUT: Quote UACC-257 melanoma GI50 for entry C=CCc1c(O)c(C(=O)/C=C/c2ccccc2)c(OC)c2ccoc12 .
OUTPUT: 2.56 µM

INPUT: Quote UACC-257 melanoma GI50 for entry C/C(=N/N=C(N)N)c1ccc(NC(=O)Nc2ccc(/C(C)=N/N=C(N)N)cc2)cc1 .
OUTPUT: 31.1 µM

INPUT: Quote UACC-257 melanoma GI50 for entry CN(C)c1ccc(N=C2C=CC(=O)c3ccccc32)cc1 .
OUTPUT: 2.21 µM

INPUT: Quote UACC-257 melanoma GI50 for entry COc1ccc(OC)c(/C=C/c2nc(SCc3ccccc3)n(-c3ccc(Cl)cc3)n2)c1 .
OUTPUT: > 100 µM

INPUT: Quote UACC-257 melanoma GI50 for entry CCOP1(=O)C=C(C)C(=C(Cl)Cl)C(C)=C1 (configuration not stated) .
OUTPUT: 11.5 µM

INPUT: Quote UACC-257 melanoma GI50 for entry Nc1c(F)cc(-c2nc3cc(F)ccc3[se]2)cc1Br .
OUTPUT: > 100 µM

INPUT: Quote UACC-257 melanoma GI50 for entry Cc1cc(=O)oc2cc(OC/C=C3\CCC(=O)O3)ccc12 .
OUTPUT: 21.5 µM
